The reported measurements were obtained from ChEMBL document CHEMBL4689842.

Test system: Fibroblast
Measurement description: Multiplex assay against human fibroblast
Type: toxicity, cell-based
Condition notes: 24 h, 10 µM, compound concentration 10 uM, replicate 1
Endpoint label: Population Membrane Permeable-Phenotype (%)
Please reply with the bare figure in % and do not write the unit itself.

Qu. Bench note: what Population Membrane Permeable-Phenotype (%) did `CN1C(=O)c2sccc2N(C)c2nc(Nc3ccc(S(N)(=O)=O)cc3)ncc21` show?
Ans. 8

Qu. If you can, please state the reported Population Membrane Permeable-Phenotype (%) value of CN1CCN(c2ccc(OC(F)(F)F)c(Nc3ncc4c(n3)-c3c(c(C(N)=O)nn3CCO)CC4)c2)CC1 [ONVANSERTIB] .
Ans. 28

Qu. Entry `OC1(c2ccc(Cl)cc2)CCN(Cc2c[nH]c3ccccc23)CC1` : reported Population Membrane Permeable-Phenotype (%) = ?
Ans. 20

Qu. Recorded Population Membrane Permeable-Phenotype (%) of CN1CCCC(n2nc(Cc3ccc(Cl)cc3)c3ccccc3c2=O)CC1.Cl (stereo not drawn) [AZELASTINE HYDROCHLORIDE] , please.
Ans. 17

Qu. Fill in the blank: the reported Population Membrane Permeable-Phenotype (%) of `Cc1[nH]c(/C=C2\C(=O)Nc3ccc(S(=O)(=O)N(C)c4cccc(Cl)c4)cc32)c(C)c1C(=O)N1CCN(C)CC1` is ____.
Ans. 38

Qu. What does the record list as Population Membrane Permeable-Phenotype (%) for `Cn1cc(-c2[nH]c3cc(NC(=O)[C@H](N)C4CCCCC4)cc4c3c2C=NNC4=O)cn1` ?
Ans. 20

Qu. Param item = Cc1nc(Nc2n[nH]c3c2CN(C(=O)N[C@H](CN(C)C)c2ccccc2)C3(C)C)c2sccc2n1 [PF-03758309] ; retrieve measured Population Membrane Permeable-Phenotype (%).
Ans. 15

Qu. Recorded Population Membrane Permeable-Phenotype (%) of Cc1nc(-c2ccc(-c3ccc(C(=O)N4CCc5cc6c(cc54)C4(CCN(C)CC4)CO6)cc3)c(C)c2)no1 [SB-224289] , please.
Ans. 2

----------
Kindly state Population Normal (%) for each of the entries shown.
System: U2OS
Measurement description: Multiplex assay against U2OS
Format: toxicity, cell-based
Condition notes: human, 24 h, 10 µM, compound concentration 10 uM, replicate 1
Your answer is read as %, so omit the unit and give the number.

Qu. Reported Population Normal (%) for U2OS, given `Cc1[nH]c(/C=C2\C(=O)Nc3ccc(S(=O)(=O)N(C)c4cccc(Cl)c4)cc32)c(C)c1C(=O)N1CCN(C)CC1` ?
Ans. 91

Qu. Give recorded Population Normal (%) with U2OS for the following molecule: `CN(C)C(=O)/C(C#N)=C/c1ccc(-c2nc3cnc4[nH]ccc4c3n2C2CCCCC2)o1`
Ans. 55

Qu. For U2OS, provide Population Normal (%) of CN1CCC[C@@H]1CCO[C@](C)(c1ccccc1)c1ccc(Cl)cc1.O=C(O)/C=C/C(=O)O [CLEMASTINE FUMARATE] please.
Ans. 90

Qu. Recall the recorded Population Normal (%) for CC(C)NCC(O)COc1ccc(CCOCC2CC2)cc1.Cl (centres undefined) [BETAXOLOL HYDROCHLORIDE] with U2OS and state it.
Ans. 93

----------
Tested on: U2OS
Measurement description: Multiplex assay against U2OS
Assay type: toxicity, cell-based
Condition notes: human, 24 h, 1 µM, compound concentration 1 uM, replicate 1
The label depends only on Population Fragmented Nuclei (%): True if it is at least 7%, False if it is smaller.

Qu. Is reported Population Fragmented Nuclei (%) greater than or equal to 7% here: C[C@@H](NCCCc1cccc(C(F)(F)F)c1)c1cccc2ccccc12.Cl [CINACALCET HYDROCHLORIDE]
Ans. False

Qu. Entry CC[C@H](C)C(=O)O[C@H]1C[C@@H](C)C=C2C=C[C@H](C)[C@H](CC[C@@H]3C[C@@H](O)CC(=O)O3)[C@H]21 [LOVASTATIN] : is its Population Fragmented Nuclei (%) no less than 7%?
Ans. False

Qu. Does Population Fragmented Nuclei (%) meet or surpass 7% for C=CC(=O)Nc1cc2c(Nc3ccc(F)c(Cl)c3)ncnc2cc1OCCCN1CCOCC1.Cl.Cl [CANERTINIB DIHYDROCHLORIDE] ?
Ans. True

Qu. Is the recorded value of Population Fragmented Nuclei (%) equal to or greater than 7% for this molecule? `Cn1cc(-c2[nH]c3cc(NC(=O)[C@H](N)C4CCCCC4)cc4c3c2C=NNC4=O)cn1`
Ans. True

Qu. hey, is Population Fragmented Nuclei (%) for this one >= 7%? c1cn2cc(-c3ccc4cn[nH]c4c3)nc(Nc3ccc(N4CCOCC4)cc3)c2n1 [ENTOSPLETINIB]
Ans. True

----------
System: Fibroblast
Measurement description: Multiplex assay against human fibroblast
Format: toxicity, cell-based
Condition notes: 12 h, 10 µM, compound concentration 10 uM, replicate 1
Endpoint label: Population Normal (%)
// return numeric value only (unit: %, not printed)

Qu. Entry c1cn2cc(-c3ccc4cn[nH]c4c3)nc(Nc3ccc(N4CCOCC4)cc3)c2n1 [ENTOSPLETINIB] has what Population Normal (%)?
Ans. 58

Qu. Could you share which Population Normal (%) value was measured for CN1CCN(c2ccc(OC(F)(F)F)c(Nc3ncc4c(n3)-c3c(c(C(N)=O)nn3CCO)CC4)c2)CC1 [ONVANSERTIB] ?
Ans. 84

Qu. Reported Population Normal (%), compound O=C1NCN(c2ccccc2)C12CCN(CCCOc1ccc(F)cc1)CC2 [SPIRAMIDE] : ____
Ans. 86

Qu. Can you share its Population Normal (%)? I mean this compound: `Cc1[nH]c(/C=C2\C(=O)Nc3ccc(S(=O)(=O)N(C)c4cccc(Cl)c4)cc32)c(C)c1C(=O)N1CCN(C)CC1`
Ans. 94

Qu. Look at this compound and give its reported Population Normal (%). `Cc1csc2c(N[C@@H](C)CN3CCN(S(=O)(=O)c4ccc(Cl)c(Cl)c4)CC3)ncnc12`
Ans. 78

Qu. Return reported Population Normal (%); argument: Cl.N#Cc1ccc2[nH]cc(CCCCN3CCN(c4ccc5oc(C(N)=O)cc5c4)CC3)c2c1 [VILAZODONE HYDROCHLORIDE]
Ans. 64

Qu. Please give the measured Population Normal (%) for this compound: CN1CCN(CCOc2cc(OC3CCOCC3)c3c(Nc4c(Cl)ccc5c4OCO5)ncnc3c2)CC1 [SARACATINIB]
Ans. 86

Qu. Reported Population Normal (%), compound `Cn1cc(-c2[nH]c3cc(NC(=O)[C@H](N)C4CCCCC4)cc4c3c2C=NNC4=O)cn1` : ____
Ans. 79

----------
System: U2OS
Measurement description: Incucyte cell viability with U2OS; also: filed as whole numbers so only -1 and 0 and 1 occur
Type: toxicity, cell-based
Condition notes: human, 12 h, 10 µM, compound concentration 10 uM, replicate number 1, timepoint 12 hours
Could you please report measured Growth Rate for the items listed next?

Qu. What does the data say about its Growth Rate? Entry: `COc1ccc(Cn2ccc3ccc(C(=O)NO)cc32)cc1`
Ans. 1

Qu. May I ask what Growth Rate has been recorded for COc1cccc(OC)c1-c1cc(C(=O)NC2(C(=O)O)C3CC4CC(C3)CC2C4)nn1-c1ccc(C(=O)N(C)CCCN(C)C)cc1C(C)C (centres undefined) ?
Ans. 1

Qu. Data request, read-out Growth Rate, for `COc1ccc2cc(OCC3(C(=O)O)CN(C(=O)c4ccc(F)cc4)C3)ccc2c1`
Ans. 1

Qu. What does the data say about its Growth Rate? Entry: O=C1NCN(c2ccccc2)C12CCN(CCCOc1ccc(F)cc1)CC2 [SPIRAMIDE]
Ans. 0

Qu. Could you tell me which Growth Rate is on file for `CN(C)C(=O)/C(C#N)=C/c1ccc(-c2nc3cnc4[nH]ccc4c3n2C2CCCCC2)o1` ?
Ans. 0

Qu. Suppose we examine the molecule `CC(C)(O)CNc1ncc(-c2ccnc(Nc3ccnc(Cl)c3)n2)c(CC2CC2)n1` ; what Growth Rate value has been reported?
Ans. 0

Qu. So what's the measured Growth Rate for this one? `Cn1cncc1[C@@](O)(COc1ccc(C#N)cc1-c1ccc(OC(F)(F)F)cc1)c1ccc(C#N)cc1`
Ans. 1

Qu. So what does the record say about Growth Rate for `O=C(NCCCN1CCOC1=O)c1cnc(NCc2cc(Br)ccc2Br)nc1NC1CCCC1` ?
Ans. 1

Qu. Requested field: Growth Rate. Item: `Cc1cccc(-c2cnc3occ(-c4ccc(C(=O)O)c(C5CCCC5)c4)c3c2)c1`
Ans. 1

----------
System: Fibroblast
Measurement description: Multiplex assay against human fibroblast
Assay type: toxicity, cell-based
Condition notes: 12 h, 1 µM, compound concentration 1 uM, replicate 1
Endpoint label: Population Pyknosed Nuclei (%)
Answer with a number only, understood to be in %.

Qu. Could you share which Population Pyknosed Nuclei (%) value was measured for `C=CC(=O)Nc1cccc(C(=O)Nc2ccc(Nc3cc(-c4[nH]c(SC)nc4C)ccn3)cc2)c1` ?
Ans. 33

Qu. Using the record for CC(C)NCC(O)COc1ccc(CCOCC2CC2)cc1.Cl (centres undefined) [BETAXOLOL HYDROCHLORIDE] , report its Population Pyknosed Nuclei (%).
Ans. 30

Qu. Report Population Pyknosed Nuclei (%) for `Cc1cc(C)cc(-c2cnc3cc(Cl)c(-c4cccc(O)c4)cc3c2OCCCN)c1` please.
Ans. 36

Qu. // Population Pyknosed Nuclei (%) lookup, key: `CN(C)C(=O)/C(C#N)=C/c1ccc(-c2nc3cnc4[nH]ccc4c3n2C2CCCCC2)o1`
Ans. 29
